# Test Summary: Stereoselective hydrolysis of anticancer agent esters with rat whole blood
# Condition Parameters: rat whole blood; 12 hours at 30° C., pH 7.5
I'd be grateful if you could share measured enantiomer excess of the carboxylic acid produced by the hydrolysis for these entries.
The answer is to be given in % e.e.; state only the numeric part.

stdin: Please look up its enantiomer excess of the carboxylic acid produced by the hydrolysis: COC(C(=O)OC[C@H]1O[C@@H](n2cc(F)c(=O)[nH]c2=O)[C@H](O)[C@@H]1O)c1ccccc1 (stereo partly drawn) [IIb]
stdout: 55.0

stdin: Which enantiomer excess of the carboxylic acid produced by the hydrolysis value is on record for CC(C(=O)Oc1ccc(N(CCCl)CCCl)cc1)c1ccccc1 (racemic) [Ia] ?
stdout: 9.4

stdin: Using the record for O=C(OC[C@H]1O[C@@H](n2cc(F)c(=O)[nH]c2=O)[C@H](O)[C@@H]1O)C(Cc1ccccc1)NC(=O)C(F)(F)F (stereo partly drawn) [IIc] , report its enantiomer excess of the carboxylic acid produced by the hydrolysis.
stdout: 41.8

stdin: Any idea what enantiomer excess of the carboxylic acid produced by the hydrolysis was measured for CC(C(=O)OC[C@H]1O[C@@H](n2cc(F)c(=O)[nH]c2=O)[C@H](O)[C@@H]1O)c1ccccc1 (stereo partly drawn) [IIa] ?
stdout: 53.7

stdin: # get_value(readout='enantiomer excess of the carboxylic acid produced by the hydrolysis', item= O=C(Oc1ccc(N(CCCl)CCCl)cc1)C(Cc1ccccc1)NC(=O)C(F)(F)F (racemic) [Ic] )
stdout: 18.3

stdin: Quick one: enantiomer excess of the carboxylic acid produced by the hydrolysis of COC(C(=O)Oc1ccc(N(CCCl)CCCl)cc1)c1ccccc1 (racemic) [Ib] ?
stdout: 20.4

* * *

For each record, write down the corresponding enantiomer excess of the carboxylic acid produced by the hydrolysis.
# Tested on: rat sarcoma cells XC
# Test Summary: Stereoselective hydrolysis of anticancer agent esters with rat sarcoma cells XC
# Condition Parameters: XC; 12 hours at 30° C., pH 7.5
Numbers only; they are read as % e.e..

stdin: Which enantiomer excess of the carboxylic acid produced by the hydrolysis is reported for this molecule? COC(C(=O)Oc1ccc(N(CCCl)CCCl)cc1)c1ccccc1 (racemic)
stdout: 69.9

stdin: enantiomer excess of the carboxylic acid produced by the hydrolysis lookup needed for CC(C(=O)OC[C@H]1O[C@@H](n2cc(F)c(=O)[nH]c2=O)[C@H](O)[C@@H]1O)c1ccccc1 (stereo partly drawn) , thanks.
stdout: 82.1

stdin: Would you mind telling me what enantiomer excess of the carboxylic acid produced by the hydrolysis value was observed for O=C(Oc1ccc(N(CCCl)CCCl)cc1)C(Cc1ccccc1)NC(=O)C(F)(F)F (racemic) ?
stdout: 77.9

stdin: Find the recorded enantiomer excess of the carboxylic acid produced by the hydrolysis belonging to CC(C(=O)Oc1ccc(N(CCCl)CCCl)cc1)c1ccccc1 (racemic) and report it.
stdout: 18.6

stdin: enantiomer excess of the carboxylic acid produced by the hydrolysis for COC(C(=O)OC[C@H]1O[C@@H](n2cc(F)c(=O)[nH]c2=O)[C@H](O)[C@@H]1O)c1ccccc1 (stereo partly drawn) ?
stdout: 81.5

* * *

# Test Summary: in vitro
# Condition Parameters: rat, anr4 cells, pH 7.5
Answer each item with its documented metabolised at 12 h.
The figure you give is taken to be in %; do not add the unit.

stdin: // lookup metabolised at 12 h for CC(C(=O)Oc1ccc(N(CCCl)CCCl)cc1)c1ccccc1 (racemic)
stdout: 20.9

stdin: What metabolised at 12 h value was documented for this compound, O=C(Oc1ccc(N(CCCl)CCCl)cc1)C(Cc1ccccc1)NC(=O)C(F)(F)F (racemic) ?
stdout: 0.6

stdin: Entry COC(C(=O)Oc1ccc(N(CCCl)CCCl)cc1)c1ccccc1 (racemic) has what metabolised at 12 h?
stdout: 14

* * *

# Test Summary: Stereoselective hydrolysis of anticancer agent esters with human whole blood
# Condition Parameters: human whole blood; 12 hours at 30° C., pH 7.5
Consider the following compounds; for each one, report its enantiomer excess of the carboxylic acid produced by the hydrolysis.
Could you give me the number in % e.e.? Just the number is fine.

stdin: Record request: enantiomer excess of the carboxylic acid produced by the hydrolysis value, item O=C(OC[C@H]1O[C@@H](n2cc(F)c(=O)[nH]c2=O)[C@H](O)[C@@H]1O)C(Cc1ccccc1)NC(=O)C(F)(F)F (stereo partly shown)
stdout: 66.9

stdin: Consider the compound shown here: CC(C(=O)Oc1ccc(N(CCCl)CCCl)cc1)c1ccccc1 (racemic) What is its recorded enantiomer excess of the carboxylic acid produced by the hydrolysis?
stdout: 9.1

stdin: So what does the record say about enantiomer excess of the carboxylic acid produced by the hydrolysis for CC(C(=O)OC[C@H]1O[C@@H](n2cc(F)c(=O)[nH]c2=O)[C@H](O)[C@@H]1O)c1ccccc1 (stereo partly shown) ?
stdout: 12.5

stdin: I am curious: what enantiomer excess of the carboxylic acid produced by the hydrolysis value has been reported for O=C(Oc1ccc(N(CCCl)CCCl)cc1)C(Cc1ccccc1)NC(=O)C(F)(F)F (racemic) ?
stdout: 23.7

* * *

# Test Summary: Stereoselective hydrolysis of anticancer agent esters with rat sarcoma cells XC
# Condition Parameters: rat, xc cells, pH 7.5
What metabolised at 12 h was measured for each of the following?
Quick reminder: number only, in %, skip the unit.

stdin: Request the reported metabolised at 12 h associated with COC(C(=O)OC[C@H]1O[C@@H](n2cc(F)c(=O)[nH]c2=O)[C@H](O)[C@@H]1O)c1ccccc1 (stereo partly drawn)
stdout: 23

stdin: Item CC(C(=O)OC[C@H]1O[C@@H](n2cc(F)c(=O)[nH]c2=O)[C@H](O)[C@@H]1O)c1ccccc1 (stereo partly drawn) has what recorded metabolised at 12 h?
stdout: 16.8

stdin: Could you share which metabolised at 12 h value was measured for O=C(OC[C@H]1O[C@@H](n2cc(F)c(=O)[nH]c2=O)[C@H](O)[C@@H]1O)C(Cc1ccccc1)NC(=O)C(F)(F)F (stereo partly drawn) ?
stdout: 3.4

* * *

Give metabolised at 12 h for every item shown.
# Test Summary: in vitro
# Condition Parameters: rat, arip cells, pH 7.5
In your response, put the unit directly after the numeric value.

stdin: Consider the compound CC(C(=O)Oc1ccc(N(CCCl)CCCl)cc1)c1ccccc1 (racemic) and give its measured metabolised at 12 h.
stdout: 10.2%

stdin: Return reported metabolised at 12 h; argument: O=C(Oc1ccc(N(CCCl)CCCl)cc1)C(Cc1ccccc1)NC(=O)C(F)(F)F (racemic)
stdout: 14.6%

stdin: Give the measured metabolised at 12 h of COC(C(=O)Oc1ccc(N(CCCl)CCCl)cc1)c1ccccc1 (racemic) .
stdout: 55.2%

* * *

Field: metabolised at 12 h. Provide a value for each of the molecules that follow.
# Test Summary: in vitro
# Condition Parameters: human, blood, pH 7.5
Reply numerically in %, unit not repeated.

stdin: Bench note: what metabolised at 12 h did CC(C(=O)Oc1ccc(N(CCCl)CCCl)cc1)c1ccccc1 (racemic) show?
stdout: 2.4

stdin: Entry O=C(Oc1ccc(N(CCCl)CCCl)cc1)C(Cc1ccccc1)NC(=O)C(F)(F)F (racemic) has what metabolised at 12 h?
stdout: 8

* * *

# System: rat pancreas cancer cells ARIP
# Test Summary: Stereoselective hydrolysis of anticancer agent esters with rat pancreas cancer cells ARIP
# Condition Parameters: ARIP; 12 hours at 30° C., pH 7.5
Value Kind: enantiomer excess of the carboxylic acid produced by the hydrolysis

stdin: So what enantiomer excess of the carboxylic acid produced by the hydrolysis did O=C(OC[C@H]1O[C@@H](n2cc(F)c(=O)[nH]c2=O)[C@H](O)[C@@H]1O)C(Cc1ccccc1)NC(=O)C(F)(F)F (stereo partly drawn) get with rat pancreas cancer cells ARIP?
stdout: > 99 % e.e.

stdin: Find the measured enantiomer excess of the carboxylic acid produced by the hydrolysis: item CC(C(=O)OC[C@H]1O[C@@H](n2cc(F)c(=O)[nH]c2=O)[C@H](O)[C@@H]1O)c1ccccc1 (stereo partly drawn) , target or system rat pancreas cancer cells ARIP.
stdout: 91.3 % e.e.

stdin: Find enantiomer excess of the carboxylic acid produced by the hydrolysis (rat pancreas cancer cells ARIP) for the entry COC(C(=O)OC[C@H]1O[C@@H](n2cc(F)c(=O)[nH]c2=O)[C@H](O)[C@@H]1O)c1ccccc1 (stereo partly drawn)
stdout: 84.1 % e.e.

stdin: What is its enantiomer excess of the carboxylic acid produced by the hydrolysis for rat pancreas cancer cells ARIP? Entry: O=C(Oc1ccc(N(CCCl)CCCl)cc1)C(Cc1ccccc1)NC(=O)C(F)(F)F (racemic)
stdout: 83.0 % e.e.

stdin: Could you share what enantiomer excess of the carboxylic acid produced by the hydrolysis was measured for CC(C(=O)Oc1ccc(N(CCCl)CCCl)cc1)c1ccccc1 (racemic) , tested on rat pancreas cancer cells ARIP?
stdout: 42.8 % e.e.

stdin: Request: enantiomer excess of the carboxylic acid produced by the hydrolysis, test system rat pancreas cancer cells ARIP, entry COC(C(=O)Oc1ccc(N(CCCl)CCCl)cc1)c1ccccc1 (racemic)
stdout: 26.8 % e.e.

* * *

# Tested on: human histiocytic leukemia cells U937
# Test Summary: Stereoselective hydrolysis of anticancer agent esters with human histiocytic leukemia cells U937
# Condition Parameters: U937; 12 hours at 30° C., pH 7.5
Would you mind telling me the reported enantiomer excess of the carboxylic acid produced by the hydrolysis of each entry?
Supply the numeric figure in % e.e., leaving out any unit text.

stdin: Reported enantiomer excess of the carboxylic acid produced by the hydrolysis, compound O=C(OC[C@H]1O[C@@H](n2cc(F)c(=O)[nH]c2=O)[C@H](O)[C@@H]1O)C(Cc1ccccc1)NC(=O)C(F)(F)F (stereo partly shown) [IIc] : ____
stdout: 57.8

stdin: I would be grateful if you could share the reported enantiomer excess of the carboxylic acid produced by the hydrolysis for CC(C(=O)Oc1ccc(N(CCCl)CCCl)cc1)c1ccccc1 (racemic) [Ia] .
stdout: 72.3

stdin: Reported enantiomer excess of the carboxylic acid produced by the hydrolysis for CC(C(=O)OC[C@H]1O[C@@H](n2cc(F)c(=O)[nH]c2=O)[C@H](O)[C@@H]1O)c1ccccc1 (stereo partly shown) [IIa] : what is it?
stdout: 38.2
